experimental_target: Beta-2 adrenergic receptor (Homo sapiens)
method_notes: Adrenergic beta2 receptor (ADRB2) small molecule antagonists, cell-based qHTS assay (AID 1963592); further: on the % scale 0 is the no-effect control and ±100 the full control effect; nearly all actives have a fitted effect of over 50% in size
assay_conditions: CHO-ADRB2 cells, isoproterenol-stimulated cAMP HTRF ratio, 0.5 h; series mostly up to 92.4 µM
Inconclusive results are not listed. Calls of active or inactive are those of the source. The call rests on the fitted dose curve.
test_readout: activity change, negative = inhibition

Summary for this molecule, CC[C@@H](CO)NCCN[C@@H](CC)CO : activity change, negative = inhibition is inactive

Summary for this molecule, C[C@@H]1[C@H](O)[C@@H](C)/C=C/C=C\C=C\C=C\C=C\C=C\C=C\[C@H](O[C@@H]2O[C@H](C)[C@@H](O)[C@H](N)[C@@H]2O)C[C@@H]2O[C@](O)(C[C@@H](O)C[C@@H](O)[C@H](O)CC[C@@H](O)C[C@@H](O)CC(=O)O[C@H]1C)C[C@H](O)[C@H]2C(=O)O (stereo in doubt) : activity change, negative = inhibition is inactive

Summary for this molecule, CCCCCCCCCCCCCCCCCC#N : activity change, negative = inhibition is inactive

Summary for this molecule, CCN(CC)C(C)CN1c2ccccc2Sc2ccccc21 (centres undefined) : activity change, negative = inhibition is inactive

###

experimental_target: D(2) dopamine receptor (Homo sapiens) (UniProt P14416)
Sequence (P14416 whole entry, looked up): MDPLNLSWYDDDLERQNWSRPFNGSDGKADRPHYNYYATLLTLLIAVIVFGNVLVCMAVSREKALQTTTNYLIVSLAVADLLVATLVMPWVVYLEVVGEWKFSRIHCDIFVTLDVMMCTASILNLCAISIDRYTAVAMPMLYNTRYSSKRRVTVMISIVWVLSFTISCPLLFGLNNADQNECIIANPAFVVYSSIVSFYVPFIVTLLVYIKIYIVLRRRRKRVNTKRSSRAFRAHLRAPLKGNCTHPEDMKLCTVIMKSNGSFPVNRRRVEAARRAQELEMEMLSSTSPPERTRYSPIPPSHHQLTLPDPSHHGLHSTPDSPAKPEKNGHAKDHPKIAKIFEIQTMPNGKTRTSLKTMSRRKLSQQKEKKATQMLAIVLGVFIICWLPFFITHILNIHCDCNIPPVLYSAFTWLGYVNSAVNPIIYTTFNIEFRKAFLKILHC
method_notes: Dopamine D2 receptor (DRD2) small molecule agonists, cell-based qHTS assay (AID 1963594); further: potency means the concentration at half of the fitted maximal effect; nearly all actives have a fitted effect of over 35% in size
assay_conditions: HEK293-DRD2 cAMP HTRF, agonist mode, 30 min; series mostly up to 92.4 µM
Results filed as inconclusive are left out. Active and inactive are the calls of the source. Calls follow the shape of the full dose curve.
test_readout: Potency

Completed entries (count: 5):
Summary for this molecule, CC1(C)CCC(C)(C)c2cc(NC(=O)c3ccc(C(=O)O)cc3)ccc21 : Potency is 1060 nM (active)

Summary for this molecule, C=CCN1CCc2nc(N)sc2CC1 : Potency is 119 nM (active)

Summary for this molecule, Nc1nc(Cl)nc2c1ncn2[C@@H]1O[C@H](CO)[C@@H](O)[C@@H]1F : Potency is 422 nM (active)

Summary for this molecule, CN1C[C@H](C(=O)N[C@]2(C)O[C@@]3(O)[C@@H]4CCCN4C(=O)[C@H](Cc4ccccc4)N3C2=O)C[C@@H]2c3cccc4[nH]cc(c34)C[C@H]21 : Potency is 22 nM (active)

Summary for this molecule, CC(CCc1ccc(O)cc1)NCCc1ccc(O)c(O)c1 (stereo not given) : Potency is 77.9 nM (active)

Batch: Potency for all items listed.
1. CCN(CC)c1ccc2c(-c3ccc(S(=O)(=O)O)cc3S(=O)(=O)[O-])c3ccc(=[N+](CC)CC)cc-3oc2c1
2. CCCN(CCC)CCc1cccc2c1CC(=O)N2
3. CCCNC(C)C(=O)Nc1ccccc1C (stereo not given)
4. CN(C)CCN1CCN(c2cccc(Cl)c2)C1=O
5. O=C1c2ccccc2S(=O)(=O)N1CCCCN1CCN(c2ncccn2)CC1

Output:
24500 nM (active)
61.9 nM (active)
14400 nM (active)
13300 nM (active)
2760 nM (active)

###

method_notes: p53 small molecule agonists, cell-based qHTS assay (AID 1963582); further: on the % scale 0 is the no-effect control and ±100 the full control effect
assay_conditions: HCT-116 p53RE-bla reporter, beta-lactamase FRET ratio, 16 h; series mostly up to 66 µM
Results filed as inconclusive are left out. Activity calls are given as the source filed them. Calls come from the whole dose curve; as a rule, active = well fitted activation curve with a large enough effect in the signal ratio in the repeat runs (not every such curve was filed as active); inconclusive = weak or mixed curves; inactive = flat fitted curve, though single readings scatter; the % refers to the signal ratio.
test_readout: activation

Summary for this compound, Oc1ccccc1C=NCc1ccccc1 : activation is inactive

Summary for this compound, CCCCC1CCCCC(=O)O1 (stereo unspecified) : activation is inactive

Summary for this compound, COc1cc(C(C)C)ccc1C : activation is -3.2% [at 13.5 µM] (inactive)

Summary for this compound, O=C(O)CNC(=O)c1ccc([N+](=O)[O-])cc1 : activation is inactive

Summary for this compound, CC1=CC(=O)CC(C)(C)C1(O)/C=C/C(C)=C\C(=O)O (stereo unspecified) : activation is inactive

Summary for this compound, CC(C)Nc1cccnc1N1CCN(C(=O)c2cc3cc(NS(C)(=O)=O)ccc3[nH]2)CC1 : activation is inactive

Summary for this compound, CC1(C)C(=O)N(CO)C(=O)N1CO : activation is inactive

Summary for this compound, C[C@]12C=CC(=O)C=C1[C@@H](F)C[C@@H]1[C@@H]2[C@@H](O)C[C@@]2(C)[C@H]1CC[C@]2(O)C(=O)CO : activation is inactive

Batch: activation for all items listed.
1. CCOC(=O)C1=NOC(c2ccccc2)(c2ccccc2)C1
2. CCCOC(=O)c1ccc(N)cc1
3. CC[C@H](NC(=O)c1cc(F)ccc1NS(=O)(=O)c1cccc2cccnc12)c1ccccc1
4. C=C(C)C(=O)OCCCC
5. CC(C)C1OCCN1CCOC(=O)NCCCCCCNC(=O)OCCN1CCOC1C(C)C (stereo unspecified)
6. C=C1C[C@@]23CC[C@H]4[C@@](C)(CCC[C@@]4(C)C(=O)O[C@@H]4O[C@H](CO)[C@@H](O)[C@H](O)[C@H]4O)[C@@H]2CC[C@]1(O[C@@H]1O[C@H](CO)[C@@H](O)[C@H](O[C@@H]2O[C@H](CO)[C@@H](O)[C@H](O)[C@H]2O)[C@H]1O[C@@H]1O[C@H](CO)[C@@H](O)[C@H](O)[C@H]1O)C3
7. CC(C)OC(=O)C(C)N(C(=O)c1ccccc1)c1ccc(F)c(Cl)c1 (stereo unspecified)
8. COc1ccc(CCN(C)CCCC(C#N)(c2cc(OC)c(OC)c(OC)c2)C(C)C)cc1OC (stereo unspecified)

Output:
1: inactive; 2: inactive; 3: inactive; 4: inactive; 5: inactive; 6: inactive; 7: inactive; 8: inactive

Batch: activation for all items listed.
1. C[C@@H]1C[C@H]2[C@@H]3CCC4=CC(=O)C=C[C@]4(C)[C@@]3(F)[C@@H](O)C[C@]2(C)[C@@]1(O)C(=O)COP(=O)(O)O
2. CC(C)OCC1CO1 (stereo unspecified)
3. C=CC1CC2C=CC1C2 (stereo unspecified)
4. CC1=CC(O)CC(C)(C)C1 (stereo unspecified)
5. NS(=O)(=O)c1cc2c(cc1C(F)(F)F)NCNS2(=O)=O

Output:
["inactive", "inactive", "inactive", "inactive", "inactive"]

Values from PubChem BioAssay (Tox21)
